System: Zika virus NS2B-NS3 protease (linked)
Assay: Optimization screen NINDS AMC qHTS for Zika virus inhibitors: Linked NS2B-NS3 protease assay
Details: recombinant linked NS2B-NS3 protease, AMC fluorogenic substrate; series mostly up to 52.5 µM
Results filed as inconclusive are left out. Calls of active or inactive are those of the source. Calls come from the whole dose curve; as a rule, active = well fitted curve in the direction sought with a large enough effect; inconclusive = small, poorly fitted or top-dose-only effect, or another doubt; inactive = no such curve, though single readings can be large or run the other way. Numbered stars: 1 amine (or outer) side, 2 acyl side, 3 side chain; on linkers, the order of the positions; unused ones are H or OH. Bridge positions count the residues as written; N and C are the ends. Square brackets hold non-standard residues; d marks the D form. Peptide text beside a SMILES is read from it. I, II: the chains in the order shown. Actinocin(9to1) = Cc1c2oc3c(C)ccc(C(=O)[*:1])c3nc-2c(C(=O)[*:2])c(N)c1=O; aThr = C[C@H](O)[C@H](N)C(=O)O; NMeV = CN[C@H](C(=O)O)C(C)C; Sar = CNCC(=O)O

COMPOUND | Potency
O=C(Nc1ccc([N+](=O)[O-])cc1Cl)c1cc(Cl)ccc1O | inactive
COc1c(C)c2c(c(O)c1C/C=C(\C)CCC(=O)O)C(=O)OC2 | inactive
CCC(CC)(NC(=O)C(C)C)C(=O)N[C@@H](CCCN=C(N)N)C(=O)NC1(C(=O)NC(c2ccc(F)cc2)c2ccc(F)cc2)CCCC1 | inactive
CO[C@H]1C[C@@H](O[C@@H]2/C(C)=C/C[C@@H]3C[C@@H](C[C@]4(CC[C@H](C)[C@@H](C5CCCCC5)O4)O3)OC(=O)[C@@H]3C=C(C)/C(=N/O)[C@H]4OC/C(=C\C=C\[C@@H]2C)[C@]43O)O[C@@H](C)[C@H]1O | inactive
CCOc1ccc(C2C(=O)N(C3CCCCCC3)CC(=O)N2CCc2ccc(Cl)cc2)cc1OC (stereo not drawn) | inactive
O=C1c2c(O)ccc([N+](=O)[O-])c2C(=O)c2c([N+](=O)[O-])ccc(O)c21 | 44.1 µM (active)
Cc1ccccc1CNc1ncnc2c1ncn2C1OC(CO)C(O)C1O (stereo not drawn) | inactive
NC(=O)C(=O)O | inactive
OC(c1cc(C(F)(F)F)nc2c(C(F)(F)F)cccc12)C1CCCCN1 (stereo not drawn) | inactive
Cc1c2oc3c(C)ccc(C(=O)N[C@@H]4C(=O)N[C@@H](C(C)C)C(=O)N5CCC[C@@H]5C(=O)N(C)CC(=O)N(C)[C@@H](C(C)C)C(=O)O[C@H]4C)c3nc-2c(C(=O)N[C@@H]2C(=O)N[C@@H](C(C)C)C(=O)N3CCC[C@@H]3C(=O)N(C)CC(=O)N(C)[C@@H](C(C)C)C(=O)O[C@H]2C)c(N)c1=O (I: [aThr]V[dP][Sar][NMeV] / II: [aThr]V[dP][Sar][NMeV]; ester I:1-I:C, II:1-II:C; linker I:N-II:N via Actinocin(9to1)) | inactive
CC[C@H](C)[C@H]1O[C@]2(CC[C@@H]1C)C[C@@H]1C[C@@H](C/C=C(\C)[C@@H](O[C@H]3C[C@H](OC)[C@@H](O[C@H]4C[C@H](OC)[C@@H](O)[C@H](C)O4)[C@H](C)O3)[C@@H](C)/C=C/C=C3\CO[C@@H]4[C@H](O)C(C)=C[C@@H](C(=O)O1)[C@]34O)O2 | inactive
O=c1cc(-c2ccccc2)oc2cc(O)c(O)c(O)c12 | inactive
CC(C)N=c1cc2n(-c3ccc(Cl)cc3)c3ccccc3nc-2cc1Nc1ccc(Cl)cc1 | inactive

Values from PubChem BioAssay AID1347150
